# study system: Luciferin 4-monooxygenase (Photinus pyralis) (UniProt P08659)
# Sequence (P08659 whole entry, looked up): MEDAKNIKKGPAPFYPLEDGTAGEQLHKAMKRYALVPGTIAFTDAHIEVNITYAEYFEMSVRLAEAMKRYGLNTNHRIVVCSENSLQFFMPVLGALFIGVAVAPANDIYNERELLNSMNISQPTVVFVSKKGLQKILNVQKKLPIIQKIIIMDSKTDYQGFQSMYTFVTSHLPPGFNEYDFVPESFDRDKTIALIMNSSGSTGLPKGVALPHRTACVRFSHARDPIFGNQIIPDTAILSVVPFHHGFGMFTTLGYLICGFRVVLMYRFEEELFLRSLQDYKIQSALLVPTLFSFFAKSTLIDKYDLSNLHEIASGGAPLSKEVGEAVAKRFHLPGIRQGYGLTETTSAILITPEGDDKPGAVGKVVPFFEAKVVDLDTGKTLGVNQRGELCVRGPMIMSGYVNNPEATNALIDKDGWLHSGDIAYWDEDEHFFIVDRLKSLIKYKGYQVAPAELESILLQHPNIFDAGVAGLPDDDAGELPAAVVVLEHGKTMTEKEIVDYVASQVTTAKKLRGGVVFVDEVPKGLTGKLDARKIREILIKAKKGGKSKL
# protocol details: firefly luciferase enzyme inhibitors, primary screen, biochemical, luminescence, purified enzyme, 2006 set (AID 1141);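 also: cell-free assay with purified firefly luciferase at 100 ng per well in PBS; test concentration not given here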
# protocol conditions: SteadyGlo luminescence, 30 min, higher = more signal, called active from +8 up or from −8 down
measured attribute: z-score
Give only the figure.

These recorded examples may help you get a feel for the data.
COc1cc(COC(C)=O)ccc1OC(C)=O :: -1.52
CCOC(=O)C[C@H]1[C@H](OC(=O)c2ccc(C(=O)c3ccccc3)cc2)[C@@H](NC(=O)c2ccc3ccccc3n2)c2cc(OCCCO)ccc2N1C(=O)c1ccccc1 :: 0.393
CO[C@H]1O[C@H](CO)[C@@H](OC(=O)Nc2ccc(Oc3ccccc3)cc2)[C@H](OC(=O)Nc2ccc3c(c2)OCO3)[C@H]1OC(=O)Nc1ccc2c(c1)OCO2 :: -6.84
COc1cc2c(cc1OC)CN(C(=O)[C@@H]1[C@H]3C(=O)O[C@H](c4ccccc4)[C@H](c4ccccc4)N3[C@H](c3ccc(O)cc3)[C@@]13C(=O)Nc1ccccc13)CC2 :: 0.81
NC(=O)NCC#Cc1ccc2c(c1)[C@]1(C(=O)N2)[C@H](C(N)=O)[C@H]2C(=O)O[C@H](c3ccccc3)[C@H](c3ccccc3)N2[C@@H]1c1ccc(O)cc1 :: -0.192

Query block: Reported z-score, compound `[N-]=[N+]=Nc1ccccc1[C@@H]1OC(c2ccc(OCCCO)cc2)=N[C@]1(Cc1ccccc1)C(=O)N1CCOCC1` : ____
Result block: -5.98

Query block: Reported z-score, compound `COC(=O)[C@@]1(Cc2ccc(OC)cc2)[C@H]2c3cc(C(=O)N(C)C)n(Cc4ccccn4)c3C[C@H]2CN1C(=O)c1ccccc1` : ____
Result block: 1.6

Query block: Reported z-score, compound `Cc1ccc(S[C@]2(C(=O)NC3CC3)CC(=O)N(Cc3ccccc3)[C@@H]2c2ccc(CO)cc2I)cc1` : ____
Result block: -1.42
